growth: recorded values
System: BT-549 breast
Assay: NCI-60 one-dose screen, 48 h (100 = growth as untreated, 0 = no growth, -100 = all killed)
Conditions: 10 µM unless noted
Description: Growth inhibition of the BT-549 human tumor cell line is measured as a screen for anti-cancer activity. Cells are grown in 96 well plates and exposed to the test compound for 48 hours. Compounds are tested at a single concentration, which is 10^-5 M for most compounds. The reported endpoint is percent growth (GI% or GIPRCNT), where numbers from 0 - 100% represent growth inhibition, and numbers from -100% - 0 represent cell death. For example, a value of 40 represents 60% growth inhibition. […]
About 83,000 compounds went through this panel and 20% of them were active in at least one assay; those are over-represented in the sample as a whole.
Give your result in % as a bare value.

COMPOUND	UNITS_TEXT	growth
O=C(CC(=O)c1cccc(Cl)c1)c1cccc(Cl)c1	%	47.6
CCCCOc1nc2ccc(C)cc2cc1/C=C/C(=O)/C=C(O)/C=C/c1cc2cc(C)ccc2nc1OCCCC	%	90.8
CC(=O)Oc1c(Cl)c(Cl)c(Cl)c(Cl)c1Cl	%	95.4
CN1C(=O)N(C)C2C1NN=c1s/c(=C\c3ccsc3)c(=O)n12 (centres undefined)	%	37
N#CCCn1cnc2c(N)ncnc21	%	103
COc1cc(/C=C\c2cc(/C=C\c3ccc(O)c(OC)c3)n(C(=O)Nc3ccc(C(F)(F)F)cc3)n2)ccc1O	%	19

Record O=C1/C=C/[C@@H](O)[C@@H]2C[C@@H](O)C[C@H]2/C=C/CCC[C@H]([C@@H](O)CO)O1 . Reported growth: 75.8

Record CC(C)[C@@]12C[C@@H](OC(=O)[C@H]3CO3)[C@@](C)(O1)[C@@H]1CC[C@@H](C)[C@H]1[C@@H]2OC(=O)/C=C/c1ccccc1 . Reported growth: 21.4

Record CCSCC1CC(O)(c2ccccc2)C(c2ccccc2)C(c2ccc(F)cc2)O1 (centres undefined) . Reported growth: -12.1

====

test system: ACHN renal; test: NCI-60 one-dose screen, 48 h (100 = growth as untreated, 0 = no growth, -100 = all killed); details: 10 µM unless noted
The panel holds about 83,000 compounds, 20% with a hit somewhere; the sample as a whole holds those more often.
ASSAY_ENDPOINT: growth (%)
Give your result in % as a bare value.

Study these solved cases before continuing.
COMPOUND	growth (%)
Cc1cc(-c2ccccc2)on1	103
COc1ccc2c(c1)N(Cc1ccc(Cl)cc1)CCC2N1CCCC1=O (stereo not drawn)	53.3
O=S1(=O)NCCN1CCNc1nccc(-c2c(-c3cccc(O)c3)nc3sccn23)n1	97

For CCCCCCCCCCCCC1CCC(=O)O1 (stereo not drawn) on ACHN renal, measured growth was 97.3

For COc1ccc(CNc2c3ccccc3nc3ccc(OC)cc23)cc1 on ACHN renal, measured growth was 10.2

====

test system: EKVX NSCLC; test: NCI-60 one-dose screen, 48 h (100 = growth as untreated, 0 = no growth, -100 = all killed); details: 10 µM unless noted
Compounds without any hit were thinned out: in the full panel of roughly 83,000, 20% have a hit.
ASSAY_ENDPOINT: growth (%)
Give your result in % as a bare value.

COMPOUND	UNITS_TEXT	TEST_RESULT
O=C(NCCN1CCCC1)n1cc(-c2ccncc2)c(-c2cc(O)cc(Cl)c2)n1	%	119
O=C1C=CN2C(=O)CC=CC2[C@@H]1O (stereo not given in full)	%	121

Record O=C(c1ccccc1)C(CCc1ccccn1)CCc1ccccn1 . Reported growth: 107

Record C/C(=N\NC(=O)CSc1nc2ccccc2c(=O)n1CCc1ccc(S(N)(=O)=O)cc1)c1ccc(Br)cc1 . Reported growth: 88.2

Record N#CCCn1cnc2c(N)ncnc21 . Reported growth: 104

====

tested on: SN12C renal; test: NCI-60 one-dose screen, 48 h; details: 10 µM unless noted
About 83,000 compounds went through this panel and 20% of them were active in at least one assay; those are over-represented in the sample as a whole. The source made the active and inactive calls. How the source made its calls: active means growth percent below 10; inactive means the rest.
Your answer must be one of the following: t for active, f for inactive

Look over these answered cases.
COMPOUND	GROUP_LABEL
Brc1ccsc1Br	f
c1cn2cc(-c3ccc4ncn(C5CCCCC5)c4c3)nc(-c3ccc4c(c3)ncn4C3CCCCC3)c2n1	t
CN1C(=O)NC(Cc2c[nH]c3c(Cl)cccc23)C1=O (stereo unspecified)	f

Challenge: Recorded test outcome, item CCN(CC)CCNC(=O)n1cc(-c2ccncc2)c(-c2cc(Cl)cc(OC)c2)n1
Response given: f

Challenge: Recorded test outcome, item CN1CCC2(CC1)N=C(SCC(=O)Nc1cnc3ccccc3c1)C(c1ccc(Br)cc1)=N2
Response given: f

Challenge: Recorded test outcome, item COc1cccc(NC(=O)OC(C)C)c1
Response given: f

Challenge: Recorded test outcome, item COc1ccc(C(=O)O)cc1.[Ag]
Response given: f

Challenge: Recorded test outcome, item Cn1cnc([N+](=O)[O-])c1S(=O)(=O)Oc1cccc2ccccc12
Response given: f

Challenge: Recorded test outcome, item Nc1nc(N)c2cc(NCc3ccc(Cl)c(Cl)c3)ccc2n1
Response given: t

Challenge: Recorded test outcome, item COc1cnc2c(c1)C(=O)c1c-2n(CCCN2CCN(C)CC2)c(=O)c2cc(Cl)ccc12
Response given: f

Challenge: Recorded test outcome, item CCNC(=O)c1ccc2c(c1)nc(-c1ccc(Cl)cc1)n2-c1cc(C(C)(C)C)[nH]n1
Response given: f

====

tested on: OVCAR-3 ovarian; assay: NCI-60 one-dose screen, 48 h (100 = growth as untreated, 0 = no growth, -100 = all killed); details: 10 µM unless noted
The panel holds about 83,000 compounds, 20% with a hit somewhere; the sample as a whole holds those more often. Active and inactive are the calls of the source. Rule for the calls: active = growth percent below 10; inactive = the rest.
ASSAY_ENDPOINT: growth

Study these solved cases before continuing.
COMPOUND	TEST_TARGET	growth
CN(C)CCCn1c(=O)c2cc([N+](=O)[O-])ccc2c2cnc3[nH]ccc3c21	OVCAR-3 ovarian	68.2% (inactive)
CC(C)(C)OC[C@@H]1N=C(c2ccc(Br)cc2)Nc2nc3ccccn3c2C1=O	OVCAR-3 ovarian	34.2% (inactive)
Nc1cc(C(=O)O)cc(C(=O)O)c1	OVCAR-3 ovarian	123% (inactive)
COc1cc(CN(CCC(O)N2CCCC2=O)Cc2ccc3c(c2)OCO3)cc(OC)c1OC (stereo not given)	OVCAR-3 ovarian	105% (inactive)

Record CCOC(=O)C(CCCCC(NC(C)=O)(C(=O)OCC)C(=O)OCC)(NC(C)=O)C(=O)OCC . Reported growth: 107% (inactive)

====

growth: recorded values
Test system: OVCAR-4 ovarian
Assay: NCI-60 one-dose screen, 48 h (100 = growth as untreated, 0 = no growth, -100 = all killed)
Settings: 10 µM unless noted
Description: Growth inhibition of the OVCAR-4 human tumor cell line is measured as a screen for anti-cancer activity. Cells are grown in 96 well plates and exposed to the test compound for 48 hours. Compounds are tested at a single concentration, which is 10^-5 M for most compounds. The reported endpoint is percent growth (GI% or GIPRCNT), where numbers from 0 - 100% represent growth inhibition, and numbers from -100% - 0 represent cell death. For example, a value of 40 represents 60% growth inhibition. […]
Compounds without any hit were thinned out: in the full panel of roughly 83,000, 20% have a hit. Active and inactive are the calls of the source. The calls were made as follows: active = growth percent below 10; inactive = the rest.

COMPOUND	growth
COc1ccc(-c2nn(C(=O)NCCN(C)C)cc2-c2ccncc2)cc1Cl	57.6% (inactive)
CC(C)(c1ccccc1)c1cc(O)c(C(C)(C)c2ccccc2)cc1O	30.8% (inactive)
COc1ccc(C(=O)OC2C(OC3C(O)COC(O[C@H]4C[C@H]5[C@@H]6CC=C7C[C@@H](O)CC[C@]7(C)[C@H]6CC[C@]5(C)[C@H]4[C@H](C)C(=O)CCC(C)C)C3OC(C)=O)OCC(O)C2O)cc1 (some centres undefined)	52.1% (inactive)

// next entry
Record COc1cc(NCCC2CCCCN2)c2ncccc2c1OC (centres undefined) . Reported growth: 36.8% (inactive)

====

tested on: OVCAR-3 ovarian; test: NCI-60 one-dose screen, 48 h; conditions: 10 µM unless noted
This is part of a sample that, as a whole, favours compounds with a hit. Of some 83,000 tested, about 20% had one in any assay. Active and inactive are the calls of the source. Rule for the calls: active = growth percent below 10; inactive = the rest.
Your answer must be one of the following: class 1 = active, class 0 = inactive

Look over these answered cases.
COMPOUND	GROUP_LABEL
Cc1ccc(Nc2cc(Cl)c([N+](=O)[O-])cc2[N+](=O)[O-])cc1	class 1
CC1OC(n2c3ccccc3c3c4c(c5c6ccccc6[nH]c5c32)C(=O)N(CCN2CCOCC2)C4=O)CC(O)C1O (configuration not stated)	class 0
O=C(Nc1cccc(N=Cc2c(O)ccc3ccccc23)c1)c1ccccc1	class 0

Challenge: Recorded test outcome, item NC(=O)c1ccc[n+](Cc2ccccc2)c1
Response given: class 0

Challenge: Recorded test outcome, item CCN(CC)CCCC(C)Nc1ccnc2ccc(Oc3ccccc3)cc12 (configuration not stated)
Response given: class 0

Challenge: Recorded test outcome, item CC(=O)Oc1ccccc1C(=O)Nc1ncc([N+](=O)[O-])s1
Response given: class 1

Challenge: Recorded test outcome, item COc1cc(CN2CCC(N3CCCC3=O)c3ccccc32)cc(OC)c1OC (configuration not stated)
Response given: class 0

Challenge: Recorded test outcome, item O=[N+]([O-])c1ccc(N/N=C/c2ccccc2O)nc1
Response given: class 0
